Where these numbers come from: paper PMC5457661

biological target: LPAR2 (Homo sapiens); construct: plasmids containing the indicated receptor cDNA or control (empty vector, mock); expressed in transfected cells; host or cells: COS-1; experiment: LPA receptor activation, aequorin-GFP calcium luminescence in COS-1 cells co-transfected with Gα15; assay type: cell-based; details: LPAR2 agonist, COS-1 cells
Sequence (Q9HBW0 whole entry): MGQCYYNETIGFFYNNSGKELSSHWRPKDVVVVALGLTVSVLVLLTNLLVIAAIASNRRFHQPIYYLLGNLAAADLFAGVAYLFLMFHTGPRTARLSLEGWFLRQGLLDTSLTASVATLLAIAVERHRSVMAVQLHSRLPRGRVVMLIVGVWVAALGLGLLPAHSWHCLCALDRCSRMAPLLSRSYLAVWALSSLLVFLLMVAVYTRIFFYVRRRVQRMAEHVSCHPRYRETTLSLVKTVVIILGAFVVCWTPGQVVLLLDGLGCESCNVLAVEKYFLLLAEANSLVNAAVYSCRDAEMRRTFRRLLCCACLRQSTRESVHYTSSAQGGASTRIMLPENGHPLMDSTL
property_label: EC50

Fill in: EC50 of O=C(O)c1ccccc1SCCCN1C(=O)c2cccc3cccc(c23)C1=O is ___
~1000 nM
